I'd be grateful if you could share measured AP2 mRNA for these entries.
Test system: aP2
assay: aP2 mRNA expression in adipocytes (real-time PCR)
Assay type: cell-based, human
experimental.parameters: Table 18; differentiating adipocytes; control = treatment with ISIS 342673
In the oligonucleotide strings, read from the 5' end, every base follows the letter of its sugar. An asterisk marks phosphorothioate; unmarked linkages are phosphodiester. Other units and linkages are bracketed, terminal groups are in braces. A string of capitals states the bases alone. e = 2'-O-(2-methoxyethyl) (MOE); [5mC] = 5-methylcytosine

Query block: Give reported AP2 mRNA value for 341805 (antisense ACCCTTATCAGTTCTCCGTCCA; all 2'-MOE, all phosphorothioate, methylation of C not given here) [compound 341805]
Result block: 81.9 percentage of control

Query block: Give reported AP2 mRNA value for 328110 (antisense eG*eA*eT*eA*eA*eA*eG*e[5mC]*e[5mC]*eA*eA*eT*eA*eA*eA*e[5mC]*eT*eG*eT*e[5mC]*eA) [compound 328110]
Result block: 93.3 percentage of control

Query block: Give reported AP2 mRNA value for 327912 (antisense eA*eA*e[5mC]*eT*eA*eT*eA*e[5mC]*eA*eA*eT*e[5mC]*eT*eA*e[5mC]*eT*eA*e[5mC]*e[5mC]*eT*e[5mC]*eA) [compound 327912]
Result block: 90.1 percentage of control

Query block: Give reported AP2 mRNA value for 328115 (antisense eA*eG*eA*eA*eG*eG*eT*eG*eG*eG*eG*eA*eG*e[5mC]*eA*eG*e[5mC]*eG*eT*e[5mC]*eA) [compound 328115]
Result block: 80.0 percentage of control

Query block: Give reported AP2 mRNA value for 341803 (antisense CCACACACTTCCTTACATTCCA; all 2'-MOE, all phosphorothioate, methylation of C not given here) [compound 341803]
Result block: 77.3 percentage of control

Query block: Give reported AP2 mRNA value for 328114 (antisense eA*eA*eT*e[5mC]*eT*e[5mC]*eA*eT*eT*eT*eT*e[5mC]*eA*eT*eA*e[5mC]*eT*eT*eG*e[5mC]*eA) [compound 328114]
Result block: 94.4 percentage of control

Query block: Give reported AP2 mRNA value for 328113 (antisense e[5mC]*eA*eA*eA*eA*eA*eT*eT*eA*eT*e[5mC]*eA*eG*e[5mC]*e[5mC]*eA*eG*eT*eT*eT*eA) [compound 328113]
Result block: 84.5 percentage of control
